- System: MDA-MB-468 breast
- methodDescription: NCI-60 one-dose screen, 48 h
- measurementParameters: 10 µM unless noted
This is part of a sample that, as a whole, favours compounds with a hit. Of some 83,000 tested, about 20% had one in any assay. Activity calls are given as the source filed them. How the source made its calls: active means growth percent below 10; inactive means the rest.
Hi! Could you answer with just one of these? YES (active), NO (inactive)

Test call for this compound, please: "O=c1c2ccccc2sc2c(NCCCNCCO)nc3ccccc3c12"
YES

Test call for this compound, please: "COC(=O)c1cnc2c(c1)Oc1ccc(Cl)cc1-c1cc(C)nn1-2"
NO

Test call for this compound, please: "Cn1nc(-c2ccc(Cl)cc2)nc2c(=O)n(C)c(=O)nc1-2"
YES

Test call for this compound, please: "S=c1nc(CS)[nH]c2ccccc12"
NO

Test call for this compound, please: "CCN1CCN(c2nc(NNC(=O)c3ccc(OC)cc3)nc(N3CCN(C(c4ccccc4)c4ccccc4)CC3)n2)CC1"
NO

Test call for this compound, please: "CC(C)C[C@@H](C(=O)N[C@H](C(=O)OC1CCCC1)c1ccccc1)[C@H](O)C(=O)NO"
NO

Test call for this compound, please: "CCOC(=O)c1c(C)nc2c(c1N)C(=O)C(=O)N2CCc1ccc(OC)c(OC)c1"
NO

Test call for this compound, please: "N=C(N)c1ccc(-c2ccc(-c3ccc(Cl)c(Cl)c3)o2)nc1"
YES

Test call for this compound, please: "N#Cc1c(-c2ccc(F)cc2)nc(N=Nc2c(O)[nH]c3ccc(Cl)cc23)nc1N1CCOCC1"
NO

Test call for this compound, please: "Cc1oc2ccc(O)c(CN3CCCCCC3)c2c1C(=O)Nc1ccc(C(F)(F)F)cc1"
YES

Test call for this compound, please: "COc1ccc(/C=N/c2cc(C(C)(C)C)nn2-c2ccccc2)cc1"
NO

Test call for this compound, please: "N=C(N)SCc1cccc2c(CSC(=N)N)cccc12"
NO

Test call for this compound, please: "CC(=O)Oc1ccccc1C(=O)Nc1ccc(C(=O)/C=C/c2cccs2)cc1"
NO
